Task for the reader: assign each of the following compounds its reported pEC50.
System Name: human follicle-stimulating hormone receptor (FSHR) (Homo sapiens, UniProt P23945)
Construct: host or cells: CHO-K1
Sequence (P23945 18-695): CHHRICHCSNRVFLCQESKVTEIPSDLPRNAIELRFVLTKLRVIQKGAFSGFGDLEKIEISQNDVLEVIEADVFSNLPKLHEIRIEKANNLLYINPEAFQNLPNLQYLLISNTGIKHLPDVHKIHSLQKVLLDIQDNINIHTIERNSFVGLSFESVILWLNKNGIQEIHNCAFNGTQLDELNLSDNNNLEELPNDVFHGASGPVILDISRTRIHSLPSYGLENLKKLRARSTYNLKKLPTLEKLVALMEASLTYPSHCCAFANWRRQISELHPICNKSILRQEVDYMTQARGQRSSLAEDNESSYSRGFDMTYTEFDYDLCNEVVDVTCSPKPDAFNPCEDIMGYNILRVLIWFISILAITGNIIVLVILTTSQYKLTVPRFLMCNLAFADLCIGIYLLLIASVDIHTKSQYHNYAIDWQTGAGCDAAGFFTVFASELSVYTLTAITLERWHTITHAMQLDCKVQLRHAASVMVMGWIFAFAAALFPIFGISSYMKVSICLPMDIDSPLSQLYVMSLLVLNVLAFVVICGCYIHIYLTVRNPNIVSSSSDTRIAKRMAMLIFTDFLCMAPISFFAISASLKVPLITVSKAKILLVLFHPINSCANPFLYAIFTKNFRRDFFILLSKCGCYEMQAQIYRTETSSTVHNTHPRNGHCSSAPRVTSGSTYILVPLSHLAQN
Experiment Summary: Measurement of agonist cAMP production by activation of human FSHR
Type: cell-based
Assay Context: CHO-K1 human FSHR cells, 30 minutes at 37° C., HTRF cAMP kit; read-out: hFSHR Agonist cAMP EC50
pEC50: −log10 of the molar value.

For orientation, consider the following solved cases.
COc1cc2c(cc1-c1cccc(NC(=O)NCCNC(=O)[C@H](N)CCCCNC(=O)CN3CCN(CC(=O)O)CCN(CC(=O)O)CCN(CC(=O)O)CC3)c1)-c1c(c(C(=O)N3CCOCC3(C)C)nn1-c1cc(Cl)cc(Cl)c1)CO2 [Compound 23A]
7.00 to 8.00
COc1cc2c(cc1-c1cccc(/C(C)=N/OCCNC(=O)COCCOCCNC(=O)CN3CCN(CC(=O)O)CCN(CC(=O)O)CCN(CC(=O)O)CC3)c1)-c1c(c(C(=O)N3CCOCC3(C)C)nn1-c1cc(Cl)cc(Cl)c1)CO2 [Compound 41]
7.00 to 8.00
COc1cc2c(cc1-c1ccc(NC(=O)NCCOCCOCCOCCOCCNC(=O)CN3CCN(CC(=O)O)CCN(CC(=O)O)CCN(CC(=O)O)CC3)cc1)-c1c(c(C(=O)N(C)C(C)(C)C)nn1-c1cc(Cl)cc(Cl)c1)CO2 [Compound 6]
> 8.00
COc1cc2c(cc1-c1cccc(NC(=O)CCOCCOCCOCCOCCNC(=O)CCC(C(=O)O)N3CCN(CC(=O)O)CCN(CC(=O)O)CCN(CC(=O)O)CC3)c1)-c1c(c(C(=O)N3CCOCC3(C)C)nn1-c1cc(Cl)cc(Cl)c1)CO2 (stereo not drawn) [Compound 28]
> 8.00
COc1cc2c(cc1-c1cncc(NC(=O)CCOCCOCCOCCOCCNC(=O)[C@H](CS(=O)(=O)O)NC(=O)CN3CCN(CC(=O)O)CCN(CC(=O)O)CCN(CC(=O)O)CC3)c1)-c1c(c(C(=O)N3CCOCC3(C)C)nn1-c1cc(Cl)cc(Cl)c1)CO2 [Compound 80]
7.00 to 8.00

Now turn to the next compound.
Lookup: pEC50 for COc1cc2c(cc1-c1cncc(NC(=O)CCC(=O)NC[C@H](NC(=O)CN3CCN(CC(=O)O)CCN(CC(=O)O)CCN(CC(=O)O)CC3)C(=O)N3CCN(CCS(=O)(=O)O)CC3)c1)-c1c(c(C(=O)N3CCOCC3(C)C)nn1-c1cc(F)cc(F)c1)CO2 [Compound 49] ?
Found: < 7.00
